assayInfo: siRNA co-transfection assay, cell viability
Assay type: cell-based
Design: concentration or dose not given beside the values
settings: co-transfection of peptide and siRNA
No end group written: not given here.
The following sequences are listed with their measured viability values.
Form entry: value (%) — number only.

Observe how each entry below is paired with its result.
WSELAKGLSELAKGLSELAKGLSELAKG [PSPF-EKG, WSELAKG LSELAKG LSELAKG LSELAKG]
102
WSDLAKGLSDLAKGLSDLAKGLSDLAKG [PSPF-DKG, WSDLAKG LSDLAKG LSDLAKG LSDLAKG]
104
WSDLAKALSDLAKALSDLAKALSDLAKA [PSPF-DKA, WSDLAKA LSDLAKA LSDLAKA LSDLAKA]
101

Attention now turns to another entry.
Query block: For WSHLAQALSHLAQALSHLAQALSHLAQA [PSPF-HQA, WSHLAQA LSHLAQA LSHLAQA LSHLAQA] , write its viability.
Result block: 105

###

Tested on: Red Blood Cells (RBCs)
assayInfo: Human red blood cell hemolysis assay (hemoglobin release)
settings: pH 5.4
No end group written: not given here.
parameterMeasured: Hemoglobin Release

WSHLAQALSHLAQALSHLAQALSHLAQA [PSPF-HQA, WSHLAQA LSHLAQA LSHLAQA LSHLAQA]
none
WSELAKALSELAKALSELAKALSELAKA [PSPF-EKA, WSELAKA LSELAKA LSELAKA LSELAKA]
none
WSHLAKGLSHLAKGLSHLAKGLSHLAKG [PSPF-HKG, WSHLAKG LSHLAKG LSHLAKG LSHLAKG]
none
WSELAQGLSELAQGLSELAQGLSELAQG [PSPF-EQG, WSELAQG LSELAQG LSELAQG LSELAQG]
none
WSHLAKALSHLAKALSHLAKALSHLAKA [PSPF-HKA, WSHLAKA LSHLAKA LSHLAKA LSHLAKA]
none
WSELAQALSELAQALSELAQALSELAQA [PSPF-EQA, WSELAQA LSELAQA LSELAQA LSELAQA]
none

Attention now turns to another entry.
Query block: For WSHLAQGLSHLAQGLSHLAQGLSHLAQG [PSPF-HQG, WSHLAQG LSHLAQG LSHLAQG LSHLAQG] , write its Hemoglobin Release.
Result block: none

###

The following sequences are listed with their measured viability values.
assayInfo: siRNA co-transfection assay, cell viability
Format: cell-based
Design: concentration or dose not given beside the values
settings: co-transfection of peptide and siRNA
No end group written: not given here.
Form entry: value (%) — number only.

Observe how each entry below is paired with its result.
WSHLAKALSHLAKALSHLAKALSHLAKA [PSPF-HKA, WSHLAKA LSHLAKA LSHLAKA LSHLAKA]
97
WSELAQGLSELAQGLSELAQGLSELAQG [PSPF-EQG, WSELAQG LSELAQG LSELAQG LSELAQG]
105
WSHLAQGLSHLAQGLSHLAQGLSHLAQG [PSPF-HQG, WSHLAQG LSHLAQG LSHLAQG LSHLAQG]
104
WSDLAQALSDLAQALSDLAQALSDLAQA [PSPF-DQA, WSDLAQA LSDLAQA LSDLAQA LSDLAQA]
100
WSELAQALSELAQALSELAQALSELAQA [PSPF-EQA, WSELAQA LSELAQA LSELAQA LSELAQA]
103

Query block: For WSELAKALSELAKALSELAKALSELAKA [PSPF-EKA, WSELAKA LSELAKA LSELAKA LSELAKA] , write its viability.
Result block: 105

Query block: For WSHLAKGLSHLAKGLSHLAKGLSHLAKG [PSPF-HKG, WSHLAKG LSHLAKG LSHLAKG LSHLAKG] , write its viability.
Result block: 102

Query block: For WSDLAQGLSDLAQGLSDLAQGLSDLAQG [PSPF-DQG, WSDLAQG LSDLAQG LSDLAQG LSDLAQG] , write its viability.
Result block: 98
